# Tested on: EKVX
# protocol.details: NCI tumour cell line growth inhibition, 48 h
Active and inactive are the calls of the source. No stated cut-off is given here; in the data, active = GI50 up to about 1.1 µM and inactive = higher.
Would you mind answering with one of these outcomes? active, inactive

Use the examples below as a reference point.
- BC(=O)NC(CC(C)C)C(=O)NCC(=O)NC1c2ccsc2C(=O)C1O.CN(C)C (stereo unspecified): inactive
- CNC(=O)N(CCC#N)[C@H]1CCCC[C@@H]1N(C(=O)NC)c1ccccc1: inactive
- C[Si](C)(C)/C=C/CN1C(=O)CCC1=O: inactive
- COc1ccccc1-c1cc(O)c2cccnc2n1: inactive
- O=C(/C=C/c1cccc(Br)c1)c1ccc(Cl)cc1: inactive

Okay, next one:
// query Lab log entry: CC(=O)O[C@H]1C[C@H](O[C@H]2[C@@H](O)C[C@H](O[C@H]3[C@@H](O)C[C@H](O[C@H]4CC[C@@]5(C)[C@H](CC[C@@H]6[C@@H]5C[C@@H](O)[C@]5(C)[C@@H](C7=CC(=O)OC7)CC[C@]65O)C4)O[C@@H]3C)O[C@@H]2C)O[C@H](C)[C@H]1O[C@@H]1O[C@H](CO)[C@@H](O)[C@H](O)[C@H]1O [LANATOSIDE C] — outcome as called in the assay?
// result active

* * *

For each entry below, report its GI50 value.
# System: SW-620
# protocol.details: NCI tumour cell line growth inhibition, 48 h
The source made the active and inactive calls. No stated cut-off is given here; in the data, active = GI50 up to about 1.1 µM and inactive = higher.

Completed entries (count: 5):
- CCOS(=O)(=O)c1ccc(-c2c3nc(c(-c4ccc(S(=O)(=O)OCC)cc4)c4ccc([nH]4)c(-c4ccc(S(=O)(=O)OCC)cc4)c4nc(c(-c5ccc(S(=O)(=O)OCC)cc5)c5ccc2[nH]5)C=C4)C=C3)cc1: > 31.6 µM (inactive)
- COc1cc2c[n+](C)c3c4cc(OC)c(OC)cc4ccc3c2cc1OC: > 66.1 µM (inactive)
- O=C(O)C1CCCCN1C(=O)Cc1c[nH]c2ccccc12 (configuration not stated): > 100 µM (inactive)
- C=CCn1c(=S)sc2c(C(=O)OCC)c3c(C)cc(C)cn3c2c1=O: > 100 µM (inactive)
- CCOC(=O)c1c[nH]c(C(=O)OCC)c1-c1cccn1-c1ccccc1: 35.2 µM (inactive)

Hi, could you look up GI50 for each item in my list?
1. COc1ccc(C(=O)NC2=C(Cl)C(=O)c3ccccc3C2=O)cc1
2. CN(C)CCNC(=O)c1cccc2ccc(-c3ccc(F)cc3)nc12
3. COc1cc(O)c(C(=O)CC(C)=O)c(OC)c1
4. O=c1[nH]c(=O)n(C2CC(O)C(CO)O2)cc1C(OCC(F)(F)F)OCC(F)(F)F (configuration not stated)
5. CCSc1nn(-c2c3ccccc3nc3ccccc23)c(=S)s1

// result
1. 1.1 µM (active)
2. 3.08 µM (inactive)
3. > 100 µM (inactive)
4. > 100 µM (inactive)
5. > 100 µM (inactive)

Hi, could you look up GI50 for each item in my list?
1. S=C1SC(c2ccc(Cl)cc2)(c2ccc(Cl)cc2)c2ccccc21
2. O=C(/C(Cl)=C/c1ccccc1)c1ccccc1

// result
68.7 µM (inactive)
1.84 µM (inactive)

* * *

For each entry below, report its GI50 value.
# System: CAKI-1
# protocol.details: NCI tumour cell line growth inhibition, 48 h
Calls of active or inactive are those of the source. No stated cut-off is given here; in the data, active = GI50 up to about 1.1 µM and inactive = higher.

Completed entries (count: 2):
• COc1ccc(CCCCl)c(C2=NCCc3cc(OC)c(OC)cc32)c1 = 39.7 µM (inactive)
• COc1cc(/C=C2\CCc3ccccc3C2=O)cc(OC)c1OC = 16.1 µM (inactive)

Now for the compound whose GI50 we want.
// query Consider the compound N#Cc1c(=O)c2cccnc2n2c1[nH]c1ccccc12 and give its recorded GI50.
// result > 100 µM (inactive)
